meta.source: the NIST ThermoML archive (doi:10.1021/je1002829)

measurement.parameters: 298.15 K; 101.33 kPa; Liquid; Vibrating tube method
measure: mass density (kg/m3)

1. CCC(=O)O; 988.21
2. CCCC(=O)O; 952.77
3. CCCCCC(=O)O; 921.2
4. CCCCC(=O)O; 933.9

====

measurement.parameters: 303.15 K; 101.33 kPa; Liquid; Vibrating tube method
measure: mass density (kg/m3)

1) CCCCCC(=O)O; 917.02
2) CCCCC(=O)O; 929.39
3) CCC(=O)O; 982.88
4) CCCC(=O)O; 947.94

====

measurement.parameters: 293.15 K
measure: surface tension liquid-gas (mN/m)

1. CCC(=O)O [propanoic acid]; 26.68
2. CCCCCC(=O)O [hexanoic acid]; 28.12
3. CCCC(=O)O [butanoic acid]; 26.73
4. CCCCC(=O)O [pentanoic acid]; 27.13

====

measurement.parameters: 308.15 K; 101.33 kPa; Liquid; Vibrating tube method
measure: mass density (kg/m3)

1) CCCCC(=O)O; 924.73
2) CCCC(=O)O; 942.91
3) CCC(=O)O; 977.43
4) CCCCCC(=O)O; 912.6

====

measurement.parameters: 308.15 K
measure: surface tension liquid-gas (mN/m)

1) CCC(=O)O; 25.16
2) CCCCCC(=O)O; 26.66
3) CCCCC(=O)O; 25.8
4) CCCC(=O)O; 25.03

====

measurement.parameters: 298.15 K
measure: surface tension liquid-gas (mN/m)

1. CCCCCC(=O)O; 27.54
2. CCC(=O)O; 26.11
3. CCCCC(=O)O; 26.8
4. CCCC(=O)O; 26.19

====

measurement.parameters: 293.15 K; 101.33 kPa; Liquid; Vibrating tube method
measure: mass density (kg/m3)

1. CCCC(=O)O; 957.61
2. CCCCCC(=O)O; 925.38
3. CCCCC(=O)O; 938.29
4. CCC(=O)O; 993.42

====

measurement.parameters: 303.15 K
measure: surface tension liquid-gas (mN/m)

1. CCCCC(=O)O; 26.23
2. CCC(=O)O; 25.7
3. CCCCCC(=O)O; 27.12
4. CCCC(=O)O; 25.56
